As shown below, each of these compounds has a reported combination Emax value.
Tested on: OVCAR-4 (Ovarian Carcinoma)
run description: combination Emax (second highest fraction inhibited in the dose matrix, 72 h); higher = more inhibition; extreme values may be limits of the assay
Provide a numeric answer; units are not to be included.

Asked: Please list combination Emax recorded for the compound COc1nnc2ccc(N3CCC(c4ccc(OCCN5CCN(C)C(=O)[C@H]5C)cc4)CC3)nn12 [AZD5153] + CN(CC[C@H](CSC1=CC=CC=C1)NC2=C(C=C(C=C2)S(=O)(=O)NC(=O)C3=CC=C(C=C3)N4CCC(CC4)[C@H](C5=CC=CC=C5C6=CC=C(C=C6)Cl)O)S(=O)(=O)C(F)(F)F)CCO [AZD4320] (first compound max 1 µM, 7x7, partner max 1 µM)
Given back: 0.458

More entries:
Asked: Please supply the value of reported combination Emax for the item CC1(C)CCC(CN2CCN(c3ccc(C(=O)NS(=O)(=O)c4ccc(NCC5CCOCC5)c([N+](=O)[O-])c4)c(Oc4cnc5[nH]ccc5c4)c3)CC2)=C(c2ccc(Cl)cc2)C1 [Venetoclax] + Cc1cc2ncnn2cc1Nc1ncc2c(n1)n(C1CCOCC1)c(=O)n2C [AZD7648] (first compound max 1 µM, 7x7, partner max 10 µM)
Given back: 0.19

* * *

Measured combination Emax, listed per entry.
Tested on: MIA-PaCa-2 (Pancreatic Carcinoma)
run description: combination Emax (second highest fraction inhibited in the dose matrix, 72 h); higher = more inhibition; extreme values may be limits of the assay
Keep the answer to the number alone.

Sample answers from the record:
Asked: State its combination Emax: NC1(C(=O)N[C@@H](CCO)c2ccc(Cl)cc2)CCN(c2ncnc3[nH]ccc23)CC1 [Capivasertib] + CC(C)n1c(=O)n(C)c2cnc3cc(F)c(-c4ccc(OCCCN5CCCCC5)nc4)cc3c21 [AZD1390] (first compound max 10 µM, 7x7, partner max 0.3 µM)
Given back: 0.188

Asked: Report combination Emax for Cc1c2c(nn1C)CSCc1cc(n(C)n1)CSc1cc(c3ccccc3c1)OCCCc1c(C(=O)O)n(C)c3c-2c(Cl)ccc13 [AZD5991] + C=CCn1c(=O)c2cnc(Nc3ccc(N4CCN(C)CC4)cc3)nc2n1-c1cccc(C(C)(C)O)n1 [AZD1775] (first compound max 1 µM, partner max 1 µM)
Given back: 0.711

Asked: // Input: Cc1c2c(nn1C)CSCc1cc(n(C)n1)CSc1cc(c3ccccc3c1)OCCCc1c(C(=O)O)n(C)c3c-2c(Cl)ccc13 [AZD5991] + CC1(C)CCC(CN2CCN(c3ccc(C(=O)NS(=O)(=O)c4ccc(NCC5CCOCC5)c([N+](=O)[O-])c4)c(Oc4cnc5[nH]ccc5c4)c3)CC2)=C(c2ccc(Cl)cc2)C1 [Venetoclax] (first compound max 1 µM, 7x7, partner max 1 µM) . Output its combination Emax only.
Given back: 0.451

Asked: Tell me combination Emax reported for COc1cccc(OCCCN)c1-c1cc(Nc2cnc(C#N)cn2)n[nH]1 [Prexasertib] + Cc1cc2ncnn2cc1Nc1ncc2c(n1)n(C1CCOCC1)c(=O)n2C [AZD7648] (first compound max 1 µM, 7x7, partner max 10 µM)
Given back: 0.792

Asked: Identify combination Emax associated with the molecule C[C@@H](Oc1cc(-c2cnn(C3CCNCC3)c2)cnc1N)c1c(Cl)ccc(F)c1Cl [Crizotinib] + Cn1cnc2c(F)c(Nc3ccc(Br)cc3Cl)c(C(=O)NOCCO)cc21 [Selumetinib] (first compound max 10 µM, 7x7, partner max 10 µM)
Given back: 0.763

Asked: Annotate the molecule Cc1c2c(nn1C)CSCc1cc(n(C)n1)CSc1cc(c3ccccc3c1)OCCCc1c(C(=O)O)n(C)c3c-2c(Cl)ccc13 [AZD5991] + Cn1cnc2c(F)c(Nc3ccc(Br)cc3Cl)c(C(=O)NOCCO)cc21 [Selumetinib] (first compound max 1 µM, 7x7, partner max 3 µM) with its measured combination Emax.
Given back: 0.623

Continuing:
Asked: Let me know recorded combination Emax for COc1cccc(OCCCN)c1-c1cc(Nc2cnc(C#N)cn2)n[nH]1 [Prexasertib] + CN(C)CCCOc1ccc(-c2ccc3ncc4c(c3c2)n(C2CCOCC2)c(=O)n4C)cn1 [AZD0156] (first compound max 1 µM, 7x7, partner max 1 µM) , thanks.
Given back: 0.754
